Measured size (nm) accompanies every entry in the list below.
# Method Notes: Lipid nanoparticle size and polydispersity by dynamic light scattering
# Assay type: physicochemical
# Experimental Context: LNP of lipid/DSPC/cholesterol/PEG-lipid 50:10:38.5:1.5 encapsulating hEPO mRNA
Form entry: value (nm) — number only.

Examples from the recorded data:
Molecule	Experimental Value
CCCCCCCCC(CCCCCC)CNC(=O)CCCCCN(CCO)CCN(CCCCC(COC(=O)CCCCCCC)COC(=O)CCCCCCC)C1CCCCCC1 (stereo not shown) [Compound 143]	69.16
CCCCCCCC(=O)OCC(COCCN(CCO)CCN(CCOCC(COC(=O)CCCCCCC)COC(=O)CCCCCCC)C1CCC1)COC(=O)CCCCCCC [Compound 178]	96.32

Q: Fill in the blank: the reported size (nm) of CCCCCCCCCCCOC(=O)CCCCCN(CCN(CCO)CCCCCC(=O)OCC(CCCCCCCC)CCCCCCCC)C1CC(F)(F)C1 [Compound 50] is ____.
Result: 59.59

Q: Fill in the blank: the reported size (nm) of CCCCCCCCCCCOC(=O)CCCCCN(CCN(CCO)CCCCCC(=O)OCC(CCCCCCCC)CCCCCCCC)C1CCC(F)(F)CC1 [Compound 49] is ____.
Result: 55.04

Q: Fill in the blank: the reported size (nm) of CCCCCCCCC(CCCCCC)CNC(=O)CCCCCN(CCCCCO)CCN(CCCCC(COC(=O)CCCCCCC)COC(=O)CCCCCCC)C1CCCCCCC1 (stereo not shown) [Compound 210] is ____.
Result: 79.56

Q: Fill in the blank: the reported size (nm) of CCCCCCCCC(CCCCCC)CNC(=O)CCCCCN(CCOCCO)CCN(CCCCC(COC(=O)CCCCCCC)COC(=O)CCCCCCC)C1CCCCC1 (stereo not shown) [Compound 206] is ____.
Result: 112.7

Q: Fill in the blank: the reported size (nm) of CCCCCCCCCCCCCCCCCCOC(=O)CCCCCN(CCN(CCO)CCCCCC(=O)OCC(CCCCCCCC)CCCCCCCC)C1CCCCC1 [Compound 105] is ____.
Result: 69.11

Q: Fill in the blank: the reported size (nm) of CCCCCCCCCCCOC(=O)CCCCCN(CCN(CCO)CCCCCC(=O)OCC(CCCCCCCC)CCCCCCCC)C1CC(OC)C1 (stereo not shown) [Compound 54] is ____.
Result: 77.99

Q: Fill in the blank: the reported size (nm) of CCCCCCCCC(CCCCCCCC)CNC(=O)CCCCCN(CCN(CCCCCCCCCO)CCCCCC(=O)OCC(CCCCCCCC)CCCCCCCC)C1CCC1 [Compound 78] is ____.
Result: 100.3
